Exercise: state measured FACS-Seq fitted mean (log10) for each of the variants provided.
B1: library; a variant is named by its letters at N, in order (parent)
chain: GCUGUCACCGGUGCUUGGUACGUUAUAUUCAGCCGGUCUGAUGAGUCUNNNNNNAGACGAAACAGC

- Variants of: B1
- protocol.summary: FACS-Seq fitted mean relative fluorescence mCherry/BFP with ligand (log10 relative fluorescence); HEK293T overexpressing SLC46A1; ligand concentration (+) FACS-Seq: 6 mM; higher = higher reporter protein expression
- measurement.parameters: with (6R,S)-folinic acid; ligand present: yes
Please state the value as a number alone, without comment.

Req: Return reported FACS-Seq fitted mean (log10); argument: "AUCUUG"
Resp: 0.288

Req: Return reported FACS-Seq fitted mean (log10); argument: "AAAUCC"
Resp: 0.398

Req: Return reported FACS-Seq fitted mean (log10); argument: "CAAGCA"
Resp: 0.434

Req: Return reported FACS-Seq fitted mean (log10); argument: "GAAACU"
Resp: 0.437

Req: Return reported FACS-Seq fitted mean (log10); argument: "GUUGCG"
Resp: 0.566

Req: Return reported FACS-Seq fitted mean (log10); argument: "CGGAUG"
Resp: -0.0609

Req: Return reported FACS-Seq fitted mean (log10); argument: "AAAUAU"
Resp: 0.275

Req: Return reported FACS-Seq fitted mean (log10); argument: "AAAAAC"
Resp: -0.16

Req: Return reported FACS-Seq fitted mean (log10); argument: "UGUAGC"
Resp: 0.362

Req: Return reported FACS-Seq fitted mean (log10); argument: "GCUGAA"
Resp: -0.25

Req: Return reported FACS-Seq fitted mean (log10); argument: "UAAGAA"
Resp: -0.19

Req: Return reported FACS-Seq fitted mean (log10); argument: "UUCUAA"
Resp: 0.66

Req: Return reported FACS-Seq fitted mean (log10); argument: "AACCAA"
Resp: 0.433

Req: Return reported FACS-Seq fitted mean (log10); argument: "GGACAA"
Resp: 0.748

Req: Return reported FACS-Seq fitted mean (log10); argument: "GUUGAA"
Resp: 0.741

Req: Return reported FACS-Seq fitted mean (log10); argument: "UACAAA"
Resp: 0.179

Req: Return reported FACS-Seq fitted mean (log10); argument: "CAGAGG"
Resp: 0.0689

Req: Return reported FACS-Seq fitted mean (log10); argument: "GACGUG"
Resp: 0.734

Req: Return reported FACS-Seq fitted mean (log10); argument: "CUGGAA"
Resp: 0.243

Req: Return reported FACS-Seq fitted mean (log10); argument: "UUAGAG"
Resp: 0.476

Req: Return reported FACS-Seq fitted mean (log10); argument: "ACAGGG"
Resp: 0.604

Req: Return reported FACS-Seq fitted mean (log10); argument: "GUAUUU"
Resp: 0.173

Req: Return reported FACS-Seq fitted mean (log10); argument: "GAUAAC"
Resp: 0.5

Req: Return reported FACS-Seq fitted mean (log10); argument: "UAUUAG"
Resp: 0.0465

Req: Return reported FACS-Seq fitted mean (log10); argument: "GGUCCA"
Resp: 0.724

Req: Return reported FACS-Seq fitted mean (log10); argument: "AUAGCA"
Resp: 0.516

Req: Return reported FACS-Seq fitted mean (log10); argument: "UAAAAG"
Resp: 0.493

Req: Return reported FACS-Seq fitted mean (log10); argument: "CAGGCU"
Resp: 0.544

Req: Return reported FACS-Seq fitted mean (log10); argument: "GAGAAA"
Resp: 0.0474

Req: Return reported FACS-Seq fitted mean (log10); argument: "CAGGUG"
Resp: 0.385

Req: Return reported FACS-Seq fitted mean (log10); argument: "AUAAGG"
Resp: 0.356

Req: Return reported FACS-Seq fitted mean (log10); argument: "UCGGAU"
Resp: 0.517

Req: Return reported FACS-Seq fitted mean (log10); argument: "CCACUU"
Resp: -0.0467

Req: Return reported FACS-Seq fitted mean (log10); argument: "AACUAC"
Resp: 0.181

Req: Return reported FACS-Seq fitted mean (log10); argument: "AGUAUG"
Resp: 0.586

Req: Return reported FACS-Seq fitted mean (log10); argument: "GUCCCC"
Resp: -1.94

Req: Return reported FACS-Seq fitted mean (log10); argument: "CACGUA"
Resp: 0.649

Req: Return reported FACS-Seq fitted mean (log10); argument: "GAAGUG"
Resp: 0.369

Req: Return reported FACS-Seq fitted mean (log10); argument: "UGCGAU"
Resp: -0.0289

Req: Return reported FACS-Seq fitted mean (log10); argument: "GGACCG"
Resp: 0.0255

Req: Return reported FACS-Seq fitted mean (log10); argument: "UGGCCA"
Resp: 0.432

Req: Return reported FACS-Seq fitted mean (log10); argument: "UAAGUG"
Resp: 0.881

Req: Return reported FACS-Seq fitted mean (log10); argument: "AAGCAU"
Resp: 0.102

Req: Return reported FACS-Seq fitted mean (log10); argument: "UACCCG"
Resp: 0.279

Req: Return reported FACS-Seq fitted mean (log10); argument: "GAAUAA"
Resp: -0.234

Req: Return reported FACS-Seq fitted mean (log10); argument: "UGAACG"
Resp: 0.296

Req: Return reported FACS-Seq fitted mean (log10); argument: "GAGCCU"
Resp: 0.513

Req: Return reported FACS-Seq fitted mean (log10); argument: "UGACAG"
Resp: 0.34

Req: Return reported FACS-Seq fitted mean (log10); argument: "CUUUUU"
Resp: 0.733

Req: Return reported FACS-Seq fitted mean (log10); argument: "UGGUGU"
Resp: 0.292

Req: Return reported FACS-Seq fitted mean (log10); argument: "AAGGAU"
Resp: 0.53

Req: Return reported FACS-Seq fitted mean (log10); argument: "AUACGG"
Resp: 0.367

Req: Return reported FACS-Seq fitted mean (log10); argument: "UAGCGG"
Resp: 0.217

Req: Return reported FACS-Seq fitted mean (log10); argument: "AAUUGA"
Resp: 0.358

Req: Return reported FACS-Seq fitted mean (log10); argument: "AUGACG"
Resp: 0.394

Req: Return reported FACS-Seq fitted mean (log10); argument: "AUGGCG"
Resp: 0.359

Req: Return reported FACS-Seq fitted mean (log10); argument: "ACAAGG"
Resp: 0.524

Req: Return reported FACS-Seq fitted mean (log10); argument: "CAGAAU"
Resp: 0.495

Req: Return reported FACS-Seq fitted mean (log10); argument: "AAAGUC"
Resp: 0.235

Req: Return reported FACS-Seq fitted mean (log10); argument: "AUGAAG"
Resp: 0.578

Req: Return reported FACS-Seq fitted mean (log10); argument: "GGCGAC"
Resp: 0.128

Req: Return reported FACS-Seq fitted mean (log10); argument: "CGAACC"
Resp: 0.315

Req: Return reported FACS-Seq fitted mean (log10); argument: "GUAGCU"
Resp: 0.287

Req: Return reported FACS-Seq fitted mean (log10); argument: "ACCGAG"
Resp: 0.47

Req: Return reported FACS-Seq fitted mean (log10); argument: "UCAAGC"
Resp: 0.553

Req: Return reported FACS-Seq fitted mean (log10); argument: "AUAAAA"
Resp: 0.263

Req: Return reported FACS-Seq fitted mean (log10); argument: "AUAUGA"
Resp: 0.342

Req: Return reported FACS-Seq fitted mean (log10); argument: "ACUAAG"
Resp: 0.751

Req: Return reported FACS-Seq fitted mean (log10); argument: "UGCUUG"
Resp: 0.655

Req: Return reported FACS-Seq fitted mean (log10); argument: "AAUUUU"
Resp: 0.309

Req: Return reported FACS-Seq fitted mean (log10); argument: "UUAAGG"
Resp: 0.25

Req: Return reported FACS-Seq fitted mean (log10); argument: "UUCAAA"
Resp: 0.0558

Req: Return reported FACS-Seq fitted mean (log10); argument: "AGGAAC"
Resp: 0.434

Req: Return reported FACS-Seq fitted mean (log10); argument: "UAUGGG"
Resp: 0.816

Req: Return reported FACS-Seq fitted mean (log10); argument: "AUACAU"
Resp: 0.452

Req: Return reported FACS-Seq fitted mean (log10); argument: "AAGAAG"
Resp: 0.315

Req: Return reported FACS-Seq fitted mean (log10); argument: "CAUGUG"
Resp: 0.351

Req: Return reported FACS-Seq fitted mean (log10); argument: "AAUGAA"
Resp: 0.46

Req: Return reported FACS-Seq fitted mean (log10); argument: "UGUUAG"
Resp: 0.762

Req: Return reported FACS-Seq fitted mean (log10); argument: "CUCCGC"
Resp: 0.294

Req: Return reported FACS-Seq fitted mean (log10); argument: "UCGAUA"
Resp: 0.69

Req: Return reported FACS-Seq fitted mean (log10); argument: "GUGGUU"
Resp: 0.443

Req: Return reported FACS-Seq fitted mean (log10); argument: "AACGCU"
Resp: 0.217

Req: Return reported FACS-Seq fitted mean (log10); argument: "UACCAC"
Resp: 0.651

Req: Return reported FACS-Seq fitted mean (log10); argument: "ACGGGA"
Resp: 0.471

Req: Return reported FACS-Seq fitted mean (log10); argument: "UUAUUU"
Resp: 0.569

Req: Return reported FACS-Seq fitted mean (log10); argument: "GAGUUG"
Resp: 0.387

Req: Return reported FACS-Seq fitted mean (log10); argument: "UAUACG"
Resp: 0.905

Req: Return reported FACS-Seq fitted mean (log10); argument: "AAUCUA"
Resp: 0.439

Req: Return reported FACS-Seq fitted mean (log10); argument: "GCUAAU"
Resp: 0.516

Req: Return reported FACS-Seq fitted mean (log10); argument: "GUCACC"
Resp: 0.061
